System: 565726-208-R1-J5-PDC complex spheroids, growth inhibition;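 further: spheroids exposed to compounds for seven days before readout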
Test: Anticancer human tumor 565726-208-R1-J5-PDC patient-derived pancreatic adenocarcinoma cell line growth inhibition [RAS]
Settings: curve of first compound; second compound 0.00316 µM
pIC50: −log10 of the molar value.
Parameter threshold = 6. Response is 1 (yes) when pIC50 meets or exceeds it, else 0 (no).

- compound: "CC(C)n1nc(-c2ccc3oc(N)nc3c2)c2c(N)ncnc21 + C=CC(=O)N1CCN(c2nc(OCC3CCCN3C)nc3c(F)c(-c4nc(N)cc(C)c4C(F)(F)F)c(Cl)cc23)C(C)C1"
  label: "1 (yes)"
- compound: "O=C(c1ccc(F)c(F)c1Nc1ccc(I)cc1F)N1CC(O)([C@@H]2CCCCN2)C1 + C=CC(=O)N1CCN(c2nc(OCC3CCCN3C)nc3c(F)c(-c4nc(N)cc(C)c4C(F)(F)F)c(Cl)cc23)C(C)C1"
  label: "1 (yes)"
- compound: "CC1(O)CCCC1n1c(=O)c(C(F)F)cc2cnc(NC3CCN(S(C)(=O)=O)CC3)nc21 (stereo not given) + C=CC(=O)N1CCN(c2nc(OCC3CCCN3C)nc3c(F)c(-c4nc(N)cc(C)c4C(F)(F)F)c(Cl)cc23)C(C)C1"
  label: "0 (no)"
- compound: "CCC(CC)c1cc(NC2CCC(N)C2)n2nccc2n1 (stereo not given) + C=CC(=O)N1CCN(c2nc(OCC3CCCN3C)nc3c(F)c(-c4nc(N)cc(C)c4C(F)(F)F)c(Cl)cc23)C(C)C1"
  label: "0 (no)"
- compound: "CCc1c2c(nc3ccc(O)cc13)-c1cc3c(c(=O)n1C2)COC(=O)[C@]3(O)CC + C=CC(=O)N1CCN(c2nc(OCC3CCCN3C)nc3c(F)c(-c4nc(N)cc(C)c4C(F)(F)F)c(Cl)cc23)C(C)C1"
  label: "1 (yes)"
- compound: "CC(C)NCC(C(=O)N1CCN(c2ncnc3c2C(C)CC3O)CC1)c1ccc(Cl)cc1 (stereo not given) + C=CC(=O)N1CCN(c2nc(OCC3CCCN3C)nc3c(F)c(-c4nc(N)cc(C)c4C(F)(F)F)c(Cl)cc23)C(C)C1"
  label: "0 (no)"
- compound: "NC1c2ccccc2OC12CCN(c1cnc3c(N4CCCc5ncccc54)n[nH]c3n1)CC2 (stereo not given) + C=CC(=O)N1CCN(c2nc(OCC3CCCN3C)nc3c(F)c(-c4nc(N)cc(C)c4C(F)(F)F)c(Cl)cc23)C(C)C1"
  label: "0 (no)"
- compound: "Nc1ccn(C2OC(CO)C(O)C2(F)F)c(=O)n1 (stereo not given) + C=CC(=O)N1CCN(c2nc(OCC3CCCN3C)nc3c(F)c(-c4nc(N)cc(C)c4C(F)(F)F)c(Cl)cc23)C(C)C1"
  label: "1 (yes)"
- compound: "Cc1nc(N2CCC3(CC2)COC(C)C3N)c(CO)nc1Sc1ccnc(N)c1Cl (stereo not given) + C=CC(=O)N1CCN(c2nc(OCC3CCCN3C)nc3c(F)c(-c4nc(N)cc(C)c4C(F)(F)F)c(Cl)cc23)C(C)C1"
  label: "0 (no)"
- compound: "CC1(C)CCC(Nc2ncc(C(F)(F)F)c(-c3c[nH]c4c(P(C)(C)=O)c(C#N)ccc34)n2)CN1 (stereo not given) + C=CC(=O)N1CCN(c2nc(OCC3CCCN3C)nc3c(F)c(-c4nc(N)cc(C)c4C(F)(F)F)c(Cl)cc23)C(C)C1"
  label: "1 (yes)"

src = PubChem BioAssay AID2060899
